# assayProcedure: yeast display, Sf9 membrane polyspecificity reagent, FACS + sequencing; frameworks hold sequencing errors
assayEndpoint: polyreactivity (PSR sort gate)

Use the examples below as a reference point.
QLQLVESGGGLVQAGGSLSLSCAASGRTVYGYSMGWYRQAPGKERELVAAISKTGGSTYYADSVKGRFTISRDNAKNTVYLQMNSLKPEDTAVYYCNARDTSGFTRFSSKYDYWGQGTQVTVSS
high polyreactivity
QVQLVESGGGLVQAGGSLRLSCAASGFILERYAMGWYRQAPGKERELVAAISSVGNTNYADSVKGRFTITRDNAKNTVYLQMNSLKPEDTAVYYCAAEGAFPIYDYWGQGTQVTVSS
low polyreactivity
QVQLVESGGGLVQAGGSLRLSCAASGSTFEYYAMGWDRQAPGKERELVAGISTGGSSNYADSVKGRFTISRDNAKNTVYLQMNSLKPEDTAVYYCNRDWALYVFGSHYHAYYSWGQGTQVTVSS
low polyreactivity
QVQLVESGGGLVQAGGSLRLSCAASGRTFPYYAMGWYRQAPGKERELVATITYSGGSTYYADSVKGRFTISRDNAKNTVYLQMNSLKPEDTAVYYCAADTGEYSAQYDYWGQGTQVTVSS
high polyreactivity

We now examine a further sequence.
So for QVQLVESGIGLVQAGGSLSLSCAASGFNLDTYGMGWYRQAPGKERELVAAISQSDVSTYYADSVKGRFTISRDNAKNTVYLQMNSLKPEDTAVYYCAADRGGLRWFWQVLYEYWGQGTQVTVSS , the logged polyreactivity (PSR sort gate) turned out to be low polyreactivity

---

# assayProcedure: yeast display, Sf9 membrane polyspecificity reagent, FACS + sequencing; frameworks hold sequencing errors
assayEndpoint: polyreactivity (PSR sort gate)

QVQLVESGGGLVQAGGSLRLSCAASGLTFYYYAMGWYRQAPGKERELVAAITGSGGRTSYADSVKGRFTISRDNAKNTVYLQMNSLKPEDTAVYYCAARNKRRGYPWQGQQKVLNFDYWGQGTQVTVSS
high polyreactivity
QVQLVESGGGLVQAGGSLRLSCAASGFTFTRNAMGWYRQAPGKERELVAASTWSGGSTYYADSVKGRFTISRDNAKNTVYLQMNSLKPEDTAVYDCAALYRSRYYAGDYWGQGTQVTVSS
high polyreactivity
QVQLVESGGGLDQAGGSLRLSCAASGYILPKNTMGWYRQAPGKERELVAAISWSGGSTFYADSVKGRFTISRDNAKNTVYLQMNSLKPEETAVYYCAADRSWSWYYRYDYWGQGTQVTVSS
low polyreactivity
QVQLVESGGGLVQAGGSLRLSCAASGRTFGSYAMGWYRQAPGKEREFVASISRRGGSTYYADSVKVRFTISRDNAKNTVYLQINSLKPEDTAVYYCAAGVPASWFDYWGQGTQVTVSS
high polyreactivity
QVQLVESGGGLVQAGCSLRLSCAASGSTFFPNGMGWYRQAPGKERELVAAITQDGGSTYYADSVKGRFTISRDNAKNTVYLQMNSLKPEDTAVYYCAASAGPYYEYGYWGQGTQVTVSS
low polyreactivity
QVQLVESGGGLVQAGGSLRLSCAASGRTIVTNAMGWYRQAPGKERELVAAITTRGSRTYYADSVKGRFTISRDNAKNTVYLQMNSLKPEDTAVYYCAAKQKHTQQTGWKYEYWGQGTQVTVSS
high polyreactivity
QVQLVESGGGLVQAGGSLRLSCAASGRILTNYVMGWYRQAPGKERELVAAITDSGGITYADSVKGRFTISRDNAKNTVYLQMNSLKPEDTAVYYCAAVRFFLYYFDFSAYDYWGQGTQVTVSS
low polyreactivity
QVQLEESGGGLVQAGGSLRLSCAASVSIFESYAKGWNRQAPGKEREFVAAISDSGADTYYADSVKGRFTISRDNAKNTVYLQMNCLKPEDTAVYYCATDDYFSSYGYFLDGYWGQGTQVTVSS
low polyreactivity

Field polyreactivity (PSR sort gate) (entry QVQLVESGGGLVQAGGSLRLSCAASGRIFAFNAMGGYRQAPGKERELVAAITGRGGRTYYADSVKGRFTISRDHAKNTVYLQMNSLKPEDTAVYYCAAQRYINYDYWGQGTQVTVSS ) reads high polyreactivity

What the record says about QVQLVESGGGLVQAGGSLRLSCAASGRIFYDNAMGWYRQAPGKERELVAAISYSGDSTYYADSVKGRFTISRDNAKNTVYVQMNSLKPEDTAVYYCAAVYISQGAFAYDYWGQGTQVTVSS : polyreactivity (PSR sort gate) is low polyreactivity

Sample QVQLVESGGGLVQAGGSLRLSCAASGRIFKRNAMGWYRQAPGKERELVATISGSGGSTYYADSVKGRFTISRDNAKNTVYIQMNRLQPEDTAVYYCSATGFFARLSTIYYYWGQGTQVTVTS ; polyreactivity (PSR sort gate) observed: high polyreactivity

---

# assayProcedure: yeast display, Sf9 membrane polyspecificity reagent, FACS + sequencing; frameworks hold sequencing errors
assayEndpoint: polyreactivity (PSR sort gate)

QVQLVESGGGLVQAGGSLRLSCAASGRTFVIYVMGLYRQAPGKERELVARISGSDGGTYYADSVKGRFTISRDNAKNTVYLQMNSLKPEDTAVYYCATARYPVAGLMDYWGQGTQVTVSS
low polyreactivity
QVQLVESGGGLVQAGGSLRLSCAASGSIFVIYAMGWYRQAPGKERELVAAITSGGNTTYADSVKGRFTISRDNAKNTVYLQMNSLKPEDTAVYYCAAYSYYTGDQYSYDYWGQGTQVTVSS
low polyreactivity
QVQLVESRGGLVQAGGSLRLSCAASGRIFSKYAMGWYRQAPGKERELVAGITIAGRTKYADSVKGRFTISRDNAKNTVYLQMNSQKPEDTAVYYCAARAQATGGYGYWGQGTQVTVSS
high polyreactivity
QVHLVESGGGLVQAGGSLRLSCAASGRISYFYAMGWYRQAPGKESELVATITTSAGRTYYADSVKGRFTISRDNAKNTVYLLMNSLKPEDTAVYYCAASRYTYPYNYWGQGTQVTVSS
high polyreactivity

Next:
Form: sequence = QVQLVDSGGGKVQAGGSLRLSCAASGITFSRNAMGWYRQAPGKEMELVAAITWNGGRTYYADSVKGRFTISRDNAKNTVDLQMNSLKPEDTAVYYCAADSGTRNLASYRYYYWGQGTQGTVSS ; polyreactivity (PSR sort gate) = high polyreactivity

---

# assayProcedure: yeast display, Sf9 membrane polyspecificity reagent, FACS + sequencing; frameworks hold sequencing errors
assayEndpoint: polyreactivity (PSR sort gate)

QVQLVESGGGLVQAGGSLRLSCAASGFIFRRYAMGWYRQAPGKERELVAAIRSDGSTNYADSVKGRFTISRDNAKNTVYLQMNSLKPEDTAVYDCAATYYSYTWFSQYYYWGQGTQVTVSS
high polyreactivity
QVQLVESGGGLVQAGGSLRLSCAASGRILEGYSMGWYRQAPGKERELVAAISFSTTTTYYADSVKGRFTISRDNAKNTVYVQMNILKPEDTAVYYCAADSQQSDYDYWGQGTQVTVSS
high polyreactivity

---

# assayProcedure: yeast display, Sf9 membrane polyspecificity reagent, FACS + sequencing; frameworks hold sequencing errors
assayEndpoint: polyreactivity (PSR sort gate)

QVQLVESGGGLVQAGGSLRLSCAASARIFVPYARGWYRQAPGKERELVAAIRKSGGSTYYADSVKGRFTISRDNAKNTVYLQMNSLKPDVTAVYYCAASTLGMVQTQPGKRKTYLYGYWGQGTQVTVSS
high polyreactivity
QVQLVESGGGIVQAGGSLSLRCAASGRIFITNAMGWNRQAPGKERELVAAIRRRGGNTYYADSVKGRFTISRDNGKNTVYLLMNSLKPEDSAVYYCAVYPRPYNYNYWGQGTQVTVSS
high polyreactivity

---

# assayProcedure: yeast display, Sf9 membrane polyspecificity reagent, FACS + sequencing; frameworks hold sequencing errors
assayEndpoint: polyreactivity (PSR sort gate)

Please review the following examples before continuing.
QVQLVESGGGLVQAGGSLRLSCAASGSTFVTNVMGWYRQATGKERELVAAISYSGGNTYYEDSVKGRFTISRDNAKNTVYLQMNSLKPEDTAVYYCAAKYRRWGMEYWGQGTQVTVSS
high polyreactivity
QVQLVESGGGLVQAGGSLRLSCAASGITFDYYAMGWYRQAPGKERELVAAISYSGGSTYYADSVKGRFTISRDNAKNTVYVQMNSLKPEDTAVYYCAAETFTISSDYYYWGQGTQVTVSS
low polyreactivity
QVQLVESGGGLVQAGGSLRLSCAASGFIFDFYTMGWYSQAPGKERELVAAITNGGSTYYADSVKGRFTISRDNAKNTVYLQMNSLKPEDTAVYYCAAYYRSRHHGYDSWGQGTQVTVSS
low polyreactivity
QVQLVESGGGLVQAGGSLRLSCAASGSIFAYAMGWYRQAPGKERELVAGISSSGGRTYYADSVKGRFTISRDNAKNTVYLQMNRLKPEDTAVYYCAAKRWGLYKGYNCGQGTQVTVSS
high polyreactivity
QVQLVESGGGLVQAGGSLRLSCAASGFIFVNYAMGWNRQAPGKERELVAAISARGGSTNYADSVKGRFTISRDNAKNTVYLQMNSLKPEDTAVYYCAARYTARRQSYGYWGQGTQVTVSS
high polyreactivity

Entry QVQLVESGGGLVQAGGSLRLSCAASGFIFPYYAMGWYRQAPGKEREFVAAITFSATRTYYADSVKGRFTISRDNAKNTVYLQMNSLKPEDTAVYYCNARGGVYGSYFEFNYWGQGTQVTVSS , polyreactivity (PSR sort gate) reported as low polyreactivity

# sequence QVQLVESGGGLVQAGGSLRLSCAASGRIFPHYAIGWYRQAPGKERELVAAISTSGGSTYYADSVKGRFTISRDIAKNTVYLQLNCLKPEDTEVYYCAARGYQYGFYYLVIYDYWGQGTQVTVSS ; its polyreactivity (PSR sort gate) = low polyreactivity

polyreactivity (PSR sort gate) recorded for this sequence, QVQLVESGGGLVQAGGSLRVSCAASGNSFTGYVMGWYRQAPGKERELVAAIRSGGSTYYADSVKGRFRISRDNAKNTVYLQMTSLKPEDTAVYYCNARYRYRLRGYDYWGQGTQVTVSS , is high polyreactivity

Summary for this sequence, QVQLVESGGGLVQAGGSLRLSCAASGLTFHYYAMGWYRQAPGKERELVAVISSGGSTYYADSVKGRFTISRDNAKNTVYLQMNSLKPEDTAVYYCAKLSLSWDGYYQYDYRGQGTQVTVSS : polyreactivity (PSR sort gate) is low polyreactivity

Lookup result for QVQLVDSGVGLVQAGGSLRLSCAASGNTFSSYTMGWYIQAPGKERELVAGISRTGTSTYYADSVKGRFTISRDNAKNSVYLQMNSLKPEDTAVYYCAARTGWWYYWGQGTQVSVSS ; measured polyreactivity (PSR sort gate): high polyreactivity

Form field polyreactivity (PSR sort gate), entry QDQLVESGGGLVQAGGSLRLSCAASGITVDGYAMGWYRQAPGKDRELVAAITTSGGRTYYADSVKGRFTISRDNAKNTVYLQMNSLKPEHTADYYCNAVRGGRYGLDYWGQGTQVTVSS : high polyreactivity
